# Measurement Protocol: Log P by HPLC on reversed phase columns (EEC directive 79/831 Annex V.A8)
# Assay type: physicochemical
# Experimental Context: [b] LC-UV, neutral range, 0.001 molar ammonium acetate solution in water and acetonitrile as eluent
Value Kind: chromatographic logP

# chromatographic logP of CCN(C)/C=N/c1cc(C)c(Oc2ccccc2)cc1Br = 4.33
